I'd appreciate it if you could supply EC50 values for the items below.
Molecular target: KCNQ 2/3 channels (Homo sapiens, UniProt O43525+O43526)
Assay: KCNQ 2/3 channel activation, thallium flux FLIPR assay (BTC-AM dye)
Conditions: HEK293 cells stably expressing human KCNQ2 and KCNQ3 subunits; thallium-induced fluorescence, 4 min compound incubation
Procedure: The following example describes the assay that can be used to identify compounds that activate KCNQ 2/3 channels. HEK293 cells stably expressing human KCNQ2 and KCNQ3 subunits were seeded in 96-well, black-walled, clear-bottomed, poly-D-lysine coated plates (BD Biosciences, Bedford, Mass.) at a density of 1×10^5 cells per well 24 hours before the assay. […] The fluorescence signal was initiated by adding 100 μL of assay buffer containing 6 mM TlNO3 and 10 mM K2SO4. […]
Give bare numbers, in nM.

Molecule: O=C(Cc1ccc(Cl)cc1)Nn1nc(CNC(=O)OCC(F)(F)F)c2ccccc2c1=O [Example 129]
Readout type: EC50
Units: nM
Measured: 1280

Please supply EC50 for each of the following items, keeping them in order.
1. CCOC(=O)c1nn(NC(=O)Cc2ccc(Cl)cc2)c(=O)c2ccccc12 [Example 63]
2. O=C(Cc1cccc(OC(F)(F)F)c1)Nn1nc(N2CCOCC2)c2ccccc2c1=O [Example 162]

[862, 1520]

Measured EC50 of O=C(CC1CC2CCC1C2)Nn1nc(-c2ccc(C(F)(F)F)nc2)c2ccccc2c1=O (racemic) [Example 43] : 143

====

Target: KCNQ 2/3 channels (Homo sapiens, UniProt O43525+O43526)
Test: KCNQ 2/3 channel activation, thallium flux FLIPR assay (BTC-AM dye)
Details: HEK293 cells stably expressing human KCNQ2 and KCNQ3 subunits; thallium-induced fluorescence, 4 min compound incubation
Readout type: pEC50
Give bare numbers, as −log10 of the molar value.

Please supply pEC50 for each of the following items, keeping them in order.
1. O=C(Cc1cc(F)cc(F)c1)Nn1nc(SCc2ccccc2)c2ccccc2c1=O
2. CC1CN(c2nn(NC(=O)CC3CC4CCC3C4)c(=O)c3ccccc23)CC(C)O1 (racemic) [Example 64]
3. O=C(Cc1ccc(Cl)cc1)Nn1nc(N2CCSCC2)c2ccccc2c1=O
4. O=C(Cc1ccc(Cl)cc1)Nn1nc([S+]([O-])c2ccccc2)c2ccccc2c1=O (stereo not drawn)
5. O=C(CC1CC2CCC1C2)Nn1nc(C(=O)O)c2ccccc2c1=O (racemic)

6.82
7.04
6.04
6.06
5.86

====

Target: KCNQ 2/3 channels (Homo sapiens, UniProt O43525+O43526)
Construct: expressed in transfected cells; host or cells: HEK293
Assay: KCNQ 2/3 channel activation, thallium flux FLIPR assay (BTC-AM dye)
Assay type: cell-based
Conditions: HEK293, maximum response relative to the response of 10 μM retigabine (set at 100%); HEK293 KCNQ2/KCNQ3 cells; read-out: % MAX
Given measured Emax, output y if it is greater than or equal to 80% and n if not.

Answered cases to consult:
Compound: O=C(Cc1ccccc1Cl)Nn1nc(N2CCOCC2)c2ccccc2c1=O [Example 151]
Answer label: n
--
Compound: O=C(Cc1ccc(Cl)cc1)Nn1nc(-c2cccnc2)c2ccccc2c1=O [Example 9]
Answer label: n
--
Compound: CN(Cc1ccccc1)c1nn(NC(=O)Cc2ccc(Cl)cc2)c(=O)c2ccccc12 [Example 36]
Answer label: y
--
Compound: O=C(Cc1ccc(F)cc1)Nn1nc(N2CCOCC2)c2ccccc2c1=O [Example 150]
Answer label: n
--
Compound: O=C(CC1CC2CCC1C2)Nn1nc(N2CCCCC2)c2ccccc2c1=O (racemic) [Example 25]
Answer label: y

In plain terms: is recorded Emax at least 80% for O=C(CC1CC2CCC1C2)Nn1nc(-c2ccnc(O)c2)c2ccccc2c1=O (racemic) [Example 46] ? n

In plain terms: is recorded Emax at least 80% for CC(C)(C)NC(=O)c1nn(NC(=O)CC2CC3CCC2C3)c(=O)c2ccccc12 (racemic) [Example 99] ? y

In plain terms: is recorded Emax at least 80% for O=C(Cc1ccc(Cl)cc1)Nn1nc(N2CCN(Cc3ccccc3)CC2)c2ccccc2c1=O [Example 101] ? y

In plain terms: is recorded Emax at least 80% for O=C(Cc1cc(F)cc(F)c1)Nn1nc(N2CCOCC2)c2ccccc2c1=O [Example 1] ? y

In plain terms: is recorded Emax at least 80% for NC(=O)c1cc(-c2nn(NC(=O)CC3CC4CCC3C4)c(=O)c3ccccc23)ccn1 (racemic) [Example 72] ? n

In plain terms: is recorded Emax at least 80% for CC(C)(C)OC(=O)NCc1nn(NC(=O)Cc2ccc(Cl)cc2)c(=O)c2ccccc12 [Example 41] ? y

In plain terms: is recorded Emax at least 80% for O=C(CC1CC2CCC1C2)Nn1nc(NCc2ccccc2)c2ccccc2c1=O (racemic) [Example 34] ? y

====

Molecular target: KCNQ 2/3 channels (Homo sapiens, UniProt O43525+O43526)
Experiment: KCNQ 2/3 channel activation, thallium flux FLIPR assay (BTC-AM dye)
Settings: HEK293 cells stably expressing human KCNQ2 and KCNQ3 subunits; thallium-induced fluorescence, 4 min compound incubation
# if measured EC50 < 0.7 µM: TRUE  # else: FALSE

Answered cases to consult:
Compound: CC(C)(C)OC(=O)Nc1ccc(S(=O)(=O)c2nn(NC(=O)Cc3ccc(Cl)cc3)c(=O)c3ccccc23)cc1
Measured on: KCNQ 2/3 channels (Homo sapiens, UniProt O43525+O43526)
Answer label: FALSE

Compound: O=C(CC1CC2CCC1C2)Nn1nc(-c2ccc(Cl)nc2)c2ccccc2c1=O (racemic)
Measured on: KCNQ 2/3 channels (Homo sapiens, UniProt O43525+O43526)
Answer label: TRUE

Compound: O=C(CC1CC2CCC1C2)Nn1nc(S(=O)(=O)c2ccccc2)c2ccccc2c1=O (racemic)
Measured on: KCNQ 2/3 channels (Homo sapiens, UniProt O43525+O43526)
Answer label: TRUE

Compound: O=C(CC1CC2CCC1C2)Nn1nc(-c2ccnc(Cl)c2)c2ccccc2c1=O (racemic)
Measured on: KCNQ 2/3 channels (Homo sapiens, UniProt O43525+O43526)
Answer label: TRUE

Item CCOC(=O)Cc1nn(NC(=O)Cc2ccc(Cl)cc2)c(=O)c2ccccc12 : EC50 beneath 0.7 µM, strictly? FALSE

Item CCOC(=O)C(C)c1nn(NC(=O)Cc2ccc(Cl)cc2)c(=O)c2ccccc12 (stereo not shown) : EC50 beneath 0.7 µM, strictly? FALSE

Item CC(C)(C)OC(=O)NCc1nn(NC(=O)Cc2ccc(C(F)(F)F)cc2)c(=O)c2ccccc12 : EC50 beneath 0.7 µM, strictly? FALSE

====

Molecular target: KCNQ 2/3 channels (Homo sapiens, UniProt O43525+O43526)
Assay: KCNQ 2/3 channel activation, thallium flux FLIPR assay (BTC-AM dye)
Details: HEK293 cells stably expressing human KCNQ2 and KCNQ3 subunits; thallium-induced fluorescence, 4 min compound incubation
Procedure: The following example describes the assay that can be used to identify compounds that activate KCNQ 2/3 channels. HEK293 cells stably expressing human KCNQ2 and KCNQ3 subunits were seeded in 96-well, black-walled, clear-bottomed, poly-D-lysine coated plates (BD Biosciences, Bedford, Mass.) at a density of 1×10^5 cells per well 24 hours before the assay. […] The fluorescence signal was initiated by adding 100 μL of assay buffer containing 6 mM TlNO3 and 10 mM K2SO4. […]
pEC50: −log10 of the molar value.
Given measured pEC50, output 1.0 if it is greater than or equal to 6 and 0.0 if not.

Smiles: Cc1cccc(CC(=O)Nn2nc(N3CCOCC3)c3ccccc3c2=O)c1
Answer label: 0.0

Smiles: O=C(Cc1cccc(Cl)c1)Nn1nc(S(=O)(=O)c2ccccc2)c2ccccc2c1=O
Answer label: 1.0

Smiles: O=C(Cc1ccc(Cl)cc1)Nn1nc(-c2cccs2)c2ccccc2c1=O
Answer label: 1.0

Now for another entry.
In plain terms: is recorded pEC50 at least 6 for O=C(Cc1ccc(Cl)cc1)Nn1nc(N2CCOCC2)c2ccccc2c1=O ? 0.0
